All figures here come from patent US20120309734A1.

Please respond with reported IC50 for every item in the list.
- System: MCF-7 breast cancer cell line
- assayOverview: Antiproliferation study, MTT cell viability assay
- Format: cell-based
- runConditions: Homo sapiens, MCF7, 72 h, antiproliferative activity, MTT, 72 h; read-out: IC50 (μM) MCF-7 cell line
- Method: All assays were performed in triplicate for the determination of mean values reported. Compounds were assayed as the free bases isolated from reaction. […] At this point solubilization was begun through the addition of 200 μL DMSO and the cells maintained at room temperature in darkness for 20 min to ensure thorough colour diffusion before reading the absorbance. […]
Give bare numbers, in µM.

1) COc1ccc(C2C(c3ccc(F)cc3)C(=O)N2c2cc(OC)c(OC)c(OC)c2)cc1O (stereo not drawn); 0.065

Okay, here is my list. What is IC50 for each of these?
1. COc1ccc(C2C(Oc3ccccc3)C(=O)N2c2cc(OC)c(OC)c(OC)c2)cc1O (stereo not drawn)
2. COc1ccc(C2CC(=O)N2c2cc(OC)c(OC)c(OC)c2)cc1O (stereo not drawn)
3. COc1ccc(C2C(c3cccs3)C(=O)N2c2cc(OC)c(OC)c(OC)c2)cc1O (stereo not drawn)

1. 0.038
2. 0.017
3. 0.007

// each compound listed below needs its IC50
1. C=CC1C(=O)N(c2cc(OC)c(OC)c(OC)c2)C1c1ccc(OC)c(O)c1 (stereo not drawn)
2. COc1ccc(C2C(c3ccc(O)cc3)C(=O)N2c2cc(OC)c(OC)c(OC)c2)cc1N (stereo not drawn)
3. COc1ccc(C2C(c3ccsc3)C(=O)N2c2cc(OC)c(OC)c(OC)c2)cc1 (stereo not drawn)
4. COc1ccc(C2C(c3cccs3)C(=O)N2c2cc(OC)c(OC)c(OC)c2)cc1 (stereo not drawn)

1: 0.0014; 2: 0.039; 3: 0.06; 4: 0.064

###

- Test system: primary endothelial cell (HUVEC)
- assayOverview: Endothelial cell proliferation, AlamarBlue
- Assay type: cell-based
- runConditions: Homo sapiens, 72 h, read-out: IC50, proliferation of HUVECs
quantityMeasured: pIC50
Answers are plain numbers, as −log10 of the molar value.

For COc1ccc(C2C(c3ccccc3)C(=O)N2c2cc(OC)c(OC)c(OC)c2)cc1O (stereo not shown) the compound record lists pIC50 as 8.40

###

- System: MCF-7 breast cancer cell line
- assayOverview: Antiproliferation study, MTT cell viability assay
- Type: cell-based
- runConditions: Homo sapiens, MCF7, 72 h, antiproliferative activity, MTT, 72 h; read-out: IC50 (μM) MCF-7 cell line
- Procedure: All assays were performed in triplicate for the determination of mean values reported. Compounds were assayed as the free bases isolated from reaction. […] At this point solubilization was begun through the addition of 200 μL DMSO and the cells maintained at room temperature in darkness for 20 min to ensure thorough colour diffusion before reading the absorbance. […]
So I've got a bunch of molecules here, and I need their log10 IC50 values.
Base-10 log of IC50, unit µM.

1) COc1ccc(C2CC(=O)N2c2cc(OC)c(OC)c(OC)c2)cc1 (stereo not shown); -1.41
2) COc1ccc(C2C(c3ccccc3)C(=O)N2c2cc(OC)c(OC)c(OC)c2)cc1 (stereo not shown); -1.47
3) COc1ccc(C2C(c3ccc(N)cc3)C(=O)N2c2cc(OC)c(OC)c(OC)c2)cc1O (stereo not shown); -2.40

Provide log10 IC50 values for the following items, in order.
1. C=C(C)C1C(=O)N(c2cc(OC)c(OC)c(OC)c2)C1c1ccc(OC)c(O)c1 (stereo not shown)
2. COc1ccc(C2C(c3cccs3)C(=O)N2c2cc(OC)c(OC)c(OC)c2)cc1N (stereo not shown)
3. COc1ccc(C2C(c3cccc(O)c3)C(=O)N2c2cc(OC)c(OC)c(OC)c2)cc1 (stereo not shown)
4. COc1ccc(C2C(c3ccc(O)cc3)C(=O)N2c2cc(OC)c(OC)c(OC)c2)cc1O (stereo not shown)
5. COc1ccc(C2C(C)C(=O)N2c2cc(OC)c(OC)c(OC)c2)cc1O (stereo not shown)
6. COc1ccc(C2C(C(C)O)C(=O)N2c2cc(OC)c(OC)c(OC)c2)cc1O (stereo not shown)
7. COc1ccc(C2C(c3ccc(N)cc3)C(=O)N2c2cc(OC)c(OC)c(OC)c2)cc1 (stereo not shown)
8. COc1ccc(C2C(c3ccsc3)C(=O)N2c2cc(OC)c(OC)c(OC)c2)cc1O (stereo not shown)

1: -1.72; 2: -1.39; 3: -1.16; 4: -3.10; 5: -2.00; 6: -1.42; 7: -1.30; 8: -2.00

// each listed molecule needs a value for log10 IC50
1. COc1ccc(C2C(c3ccc(F)cc3)C(=O)N2c2cc(OC)c(OC)c(OC)c2)cc1N (stereo not shown)
2. COc1ccc(C2C(C)C(=O)N2c2cc(OC)c(OC)c(OC)c2)cc1 (stereo not shown)
3. COc1ccc(C2C(c3ccccc3)C(=O)N2c2cc(OC)c(OC)c(OC)c2)cc1O (stereo not shown)
4. COc1ccc(C2C(c3ccc(N)cc3)C(=O)N2c2cc(OC)c(OC)c(OC)c2)cc1N (stereo not shown)
5. COc1ccc(C2C(C(O)C=Cc3ccccc3)C(=O)N2c2cc(OC)c(OC)c(OC)c2)cc1O (stereo not shown)
6. COc1ccc(C2C(c3ccccc3)C(=O)N2c2cc(OC)c(OC)c(OC)c2)cc1N (stereo not shown)
7. COc1ccc(C2C(c3ccc(O)cc3)C(=O)N2c2cc(OC)c(OC)c(OC)c2)cc1 (stereo not shown)
8. COc1ccc(C2C(c3ccc(F)cc3)C(=O)N2c2cc(OC)c(OC)c(OC)c2)cc1 (stereo not shown)

1. -1.26
2. -1.33
3. -2.02
4. -1.52
5. -1.33
6. -1.19
7. -1.23
8. -1.38
